Where these numbers come from: patent US9822138B2

Test system: HIV-1 (H9/IIIB strain)
Assay: microbe, parasite or virus in culture
Assay type: cell-based
Settings: Human immunodeficiency virus 1, IIIB, 50% normal human serum; MT4-GFP cells infected with HIV-1 H9/IIIB; inhibition of reproductive ratio R0; read-out: Viking, IC50 (50% NHS)
endpoint: IC50 (nM)
The response must be a number in nM with no trailing unit.

Ask: For the compound CC(C)OC(=O)[C@@H](C)CNP(=O)(CO[C@H](C)Cn1cnc2c(N)ncnc21)N[C@@H](C)C(=O)OC1CCCC1 (single isomer, unassigned) [Example 11A] , give its measured IC50 value.
Reply: 104

Ask: For the compound CCCCCOC(=O)[C@H](C)NP(=O)(CO[C@H](C)Cn1cnc2c(N)ncnc21)NC[C@H](C)C(=O)OC(C)C (single isomer, unassigned) [Example 16A] , give its measured IC50 value.
Reply: 18.6

Ask: For the compound CC(C)COC(=O)[C@H](C)NP(=O)(CO[C@H](C)Cn1cnc2c(N)ncnc21)NC[C@H](C)C(=O)OC(C)C (single isomer, unassigned) [Example 14A] , give its measured IC50 value.
Reply: 70.2

Ask: For the compound CC(C)OC(=O)[C@@H](C)CNP(=O)(CO[C@H](C)Cn1cnc2c(N)ncnc21)N[C@@H](C)C(=O)OC1CCC1 (single isomer, unassigned) [Example 12A] , give its measured IC50 value.
Reply: 119

Ask: For the compound CCCCOC(=O)[C@H](C)NP(=O)(CO[C@H](C)Cn1cnc2c(N)ncnc21)NC[C@H](C)C(=O)OC(C)C (single isomer, unassigned) [Example 15A] , give its measured IC50 value.
Reply: 146

Ask: For the compound CC(C)OC(=O)[C@@H](C)CNP(=O)(CO[C@H](C)Cn1cnc2c(N)ncnc21)N[C@H](C)C(=O)OC1CCCC1 (single isomer, unassigned) [Example 22A] , give its measured IC50 value.
Reply: 480

###

Test system: HIV-1 (H9/IIIB strain)
Experiment: microbe, parasite or virus in culture
Format: cell-based
Details: 10% normal human serum; MT4-GFP cells infected with HIV-1 H9/IIIB; inhibition of reproductive ratio R0; read-out: Viking, IC50 (10% NHS)
endpoint: pIC50
The value called pIC50 is obtained by taking minus log10 of the concentration in mol/L.

Ask: For the compound CC(C)OC(=O)[C@@H](C)CNP(=O)(CO[C@H](C)Cn1cnc2c(N)ncnc21)N[C@@H](C)C(=O)OC1CCCCC1 (single isomer, unassigned) [Example 13A] , give its measured pIC50 value.
Reply: 8.06

Ask: For the compound CC(C)OC(=O)C[C@@H](C)NP(=O)(CO[C@H](C)Cn1cnc2c(N)ncnc21)N[C@@H](C)C(=O)OC(C)C (single isomer, unassigned) [Example 9A] , give its measured pIC50 value.
Reply: 7.60

Ask: For the compound CC(C)OC(=O)[C@@H](C)CNP(=O)(CO[C@H](C)Cn1cnc2c(N)ncnc21)N[C@@H](C)C(=O)OC1CCCC1 (single isomer, unassigned) [Example 11B] , give its measured pIC50 value.
Reply: 7.68

Ask: For the compound CCCCOC(=O)[C@H](C)NP(=O)(CO[C@H](C)Cn1cnc2c(N)ncnc21)NC[C@H](C)C(=O)OC(C)C (single isomer, unassigned) [Example 15B] , give its measured pIC50 value.
Reply: 7.93

Ask: For the compound CC(C)OC(=O)C[C@H](C)NP(=O)(CO[C@H](C)Cn1cnc2c(N)ncnc21)N[C@@H](C)C(=O)OC(C)C (single isomer, unassigned) [Example 8B] , give its measured pIC50 value.
Reply: 6.36

Ask: For the compound CCCCCOC(=O)C(C)(C)NP(=O)(CO[C@H](C)Cn1cnc2c(N)ncnc21)N[C@@H](C)CC(=O)OC(C)C (single isomer, unassigned) [Example 26B] , give its measured pIC50 value.
Reply: 8.82

Ask: For the compound CCCCCCCOC(=O)[C@H](C)NP(=O)(CO[C@H](C)Cn1cnc2c(N)ncnc21)NC[C@H](C)C(=O)OC(C)C (single isomer, unassigned) [Example 17B] , give its measured pIC50 value.
Reply: 8.66

Ask: For the compound CC(C)OC(=O)CCNP(=O)(CO[C@H](C)Cn1cnc2c(N)ncnc21)N[C@H](C)C(=O)OC1CCC1 (single isomer, unassigned) [Example 23B] , give its measured pIC50 value.
Reply: 6.92

###

Assay: Prodrug stability assay in bio-relevant media (FaSSIF with pancreatin; GI tract stability)
Type: in vitro ADME
Settings: parent prodrug area at 5 h divided by area at 0 h; 37° C.; 0.5 mg/mL pancreatin in FaSSIF
Provide the recorded GI Tract stability for the entries that follow.
The response must be a number in % with no trailing unit.

Ask: For the molecule CCCCCOC(=O)C(C)(C)N[P@](=O)(CO[C@H](C)Cn1cnc2c(N)ncnc21)N[C@@H](CC(=O)OC(C)C)C(C)C (single isomer, unassigned) [Example 24A] , give its measured GI Tract stability value.
Reply: 76

Ask: For the molecule CC(C)OC(=O)C[C@H](N[P@@](=O)(CO[C@H](C)Cn1cnc2c(N)ncnc21)NC(C)(C)C(=O)OC(C)C)C(C)C (single isomer, unassigned) [Example 25A] , give its measured GI Tract stability value.
Reply: 99.0

Ask: For the molecule CCCCCOC(=O)[C@H](C)NP(=O)(CO[C@H](C)Cn1cnc2c(N)ncnc21)NC[C@H](C)C(=O)OC(C)C (single isomer, unassigned) [Example 16A] , give its measured GI Tract stability value.
Reply: 12.7

Ask: For the molecule CC(C)OC(=O)[C@@H](C)CNP(=O)(CO[C@H](C)Cn1cnc2c(N)ncnc21)N[C@H](C)C(=O)OC1CCCC1 (single isomer, unassigned) [Example 22B] , give its measured GI Tract stability value.
Reply: 99.2

Ask: For the molecule CC(C)OC(=O)CCNP(=O)(CO[C@H](C)Cn1cnc2c(N)ncnc21)N[C@H](C)C(=O)OC1CCC1 (single isomer, unassigned) [Example 23B] , give its measured GI Tract stability value.
Reply: 101

Ask: For the molecule CC(C)OC(=O)[C@@H](C)CNP(=O)(CO[C@H](C)Cn1cnc2c(N)ncnc21)N[C@@H](C)C(=O)OC1CCCCC1 (single isomer, unassigned) [Example 13A] , give its measured GI Tract stability value.
Reply: 38.7

Ask: For the molecule CC(C)OC(=O)C[C@H](C)NP(=O)(CO[C@H](C)Cn1cnc2c(N)ncnc21)N[C@H](C)C(=O)OC1CCC1 (single isomer, unassigned) [Example 19A] , give its measured GI Tract stability value.
Reply: 100

Ask: For the molecule CC(C)OC(=O)C[C@@H](C)NP(=O)(CO[C@H](C)Cn1cnc2c(N)ncnc21)N[C@@H](C)C(=O)OC(C)C (single isomer, unassigned) , give its measured GI Tract stability value.
Reply: 99.6

Ask: For the molecule CC(C)OC(=O)C[C@H](N[P@](=O)(CO[C@H](C)Cn1cnc2c(N)ncnc21)NC(C)(C)C(=O)OC(C)C)C(C)C [Example 25B] , give its measured GI Tract stability value.
Reply: 100

Ask: For the molecule CC(C)OC(=O)[C@@H](C)CNP(=O)(CO[C@H](C)Cn1cnc2c(N)ncnc21)N[C@H](C)C(=O)OC1CCC1 (single isomer, unassigned) [Example 20B] , give its measured GI Tract stability value.
Reply: 99.3

Ask: For the molecule CC(C)OC(=O)[C@@H](C)CNP(=O)(CO[C@H](C)Cn1cnc2c(N)ncnc21)N[C@@H](C)C(=O)OC1CCC1 (single isomer, unassigned) [Example 12B] , give its measured GI Tract stability value.
Reply: 37.7

###

Tested on: HIV-1 (H9/IIIB strain)
Assay: microbe, parasite or virus in culture
Format: cell-based
Details: Human immunodeficiency virus 1, IIIB, read-out: Viking, IC50 (10% NHS)
endpoint: IC50

Ask: For the compound CC(C)OC(=O)CCNP(=O)(CO[C@H](C)Cn1cnc2c(N)ncnc21)NCCC(=O)OC(C)C [Example 1] , give its measured IC50 value.
Reply: > 8.4 µM

###

Assay: Prodrug stability assay in bio-relevant media (FaSSIF with pancreatin; GI tract stability)
Format: in vitro ADME
Conditions: parent prodrug area at 5 h divided by area at 0 h; 37° C.; 0.5 mg/mL pancreatin in FaSSIF
Description: Prodrug Stability Assay in Bio-Relevant Media The following assay was employed to evaluate the stability of the prodrugs in simulated gastrointestinal tract conditions. Preparation of fasted state simulated intestinal fluid (FaSSIF) using Phares SIF Powder was carried out according to protocols from Phare Drug Delivery AG (Baselland, Switzerland). […]
Provide the recorded GI Tract stability for the entries that follow.

Ask: For the compound CC(C)OC(=O)[C@@H](C)CNP(=O)(CO[C@H](C)Cn1cnc2c(N)ncnc21)N[C@@H](C)C(=O)OC1CCCC1 (single isomer, unassigned) [Example 11B] , give its measured GI Tract stability value.
Reply: 76.4%

Ask: For the compound CCCCCCCOC(=O)[C@H](C)NP(=O)(CO[C@H](C)Cn1cnc2c(N)ncnc21)NC[C@H](C)C(=O)OC(C)C (single isomer, unassigned) [Example 17A] , give its measured GI Tract stability value.
Reply: 30.5%

Ask: For the compound CC(C)OC(=O)CCNP(=O)(CO[C@H](C)Cn1cnc2c(N)ncnc21)N[C@@H](C)C(=O)OC(C)C (single isomer, unassigned) , give its measured GI Tract stability value.
Reply: 98.7%

Ask: For the compound CCCCCCOC(=O)C(C)(C)NP(=O)(CO[C@H](C)Cn1cnc2c(N)ncnc21)N[C@@H](CC(=O)OC(C)C)C(C)C (single isomer, unassigned) [Example 28B] , give its measured GI Tract stability value.
Reply: 83%

Ask: For the compound CCCCCOC(=O)[C@H](C)NP(=O)(CO[C@H](C)Cn1cnc2c(N)ncnc21)NC[C@H](C)C(=O)OC(C)C (single isomer, unassigned) [Example 16B] , give its measured GI Tract stability value.
Reply: 56.2%
